# System: Fibroblast
# procedure summary: Multiplex assay against human fibroblast
# Assay type: toxicity, cell-based
# measurement setup: 48 h, 10 µM, compound concentration 10 uM, replicate 2
metric name: Population Membrane Permeable-Phenotype (%)

# compound, target or test system, value reported
rows = [
    ("O=C(O)Cc1ccccc1Nc1c(Cl)cccc1Cl [DICLOFENAC]", "Fibroblast", "4%"),
    ("C[C@H](NC(=O)c1c(C(F)F)nn(C)c1Oc1cccc(C(F)(F)F)c1)c1ccc(C(=O)O)cc1 [PALUPIPRANT]", "Fibroblast", "10%"),
    ("O=C(O)c1cc2ccccc2c(Cc2c(O)c(C(=O)O)cc3ccccc23)c1O [PAMOIC ACID]", "Fibroblast", "3%"),
    ("Cc1ccc(/C(=C\\CN2CCCC2)c2ccccn2)cc1 [TRIPROLIDINE]", "Fibroblast", "5%"),
]
